Data provenance is patent US20250346592A1.

- TARGET DESC: UniProt:Q9UM07
- PROCEDURE TEXT: RFMS1 assay (RapidFire mass spectrometry, BAEE substrate)
- Assay type: biochemical
- MEASUREMENT SETUP: 5 nM hPAD4, 250 μM BAEE, 30 min preincubation at 37° C., 90 min reaction; read-out: RFMS 1 IC50
pIC50: −log10 of the molar value.
READOUT: pIC50

// below: answered compounds
COc1cccc2cc(-c3nc4cc5c(cc4n3C)CCN(C[C@H]3COCCN3)C5=O)n(CCOC(F)F)c12	6.30 to 7.00
COC(=O)NCCOc1cccc2cc(-c3nc4cc5c(cc4n3C)CCN(C[C@H](N)CF)C5=O)n(CC3CC3)c12	7.00 to 7.96
COc1cccc2cc(-c3nc4cc5c(cc4n3C)CCN(C[C@H](N)CF)C5=O)n(Cc3cc(C)no3)c12	7.00 to 7.96
CN[C@H](C)CN1CCc2cc3c(cc2C1=O)nc(-c1cc2cccc(OCC4CNC(=O)C4)c2n1CC1CC1)n3C (stereo partly shown)	6.00 to 6.30
COc1cccc2cc(-c3nc4cc5c(c(F)c4n3C)CCN(C[C@H](N)CF)C5=O)n(CC3CC3)c12	7.00 to 7.96

Requested field: pIC50. Item: COc1cccc2cc(-c3nc4cc5c(cc4n3C)CCN(C[C@H]3COCCN3)C5=O)n(CC3CC3)c12
6.30 to 7.00

Do the same for Cn1c(-c2cc3cccc(OCCO)c3n2CC2CC2)nc2cc3c(cc21)CCN(C[C@H](N)CF)C3=O please
7.00 to 7.96

----------
- TARGET DESC: hPAD4 enzyme (Homo sapiens (Human), UniProt Q9UM07)
- Sequence (Q9UM07 whole entry): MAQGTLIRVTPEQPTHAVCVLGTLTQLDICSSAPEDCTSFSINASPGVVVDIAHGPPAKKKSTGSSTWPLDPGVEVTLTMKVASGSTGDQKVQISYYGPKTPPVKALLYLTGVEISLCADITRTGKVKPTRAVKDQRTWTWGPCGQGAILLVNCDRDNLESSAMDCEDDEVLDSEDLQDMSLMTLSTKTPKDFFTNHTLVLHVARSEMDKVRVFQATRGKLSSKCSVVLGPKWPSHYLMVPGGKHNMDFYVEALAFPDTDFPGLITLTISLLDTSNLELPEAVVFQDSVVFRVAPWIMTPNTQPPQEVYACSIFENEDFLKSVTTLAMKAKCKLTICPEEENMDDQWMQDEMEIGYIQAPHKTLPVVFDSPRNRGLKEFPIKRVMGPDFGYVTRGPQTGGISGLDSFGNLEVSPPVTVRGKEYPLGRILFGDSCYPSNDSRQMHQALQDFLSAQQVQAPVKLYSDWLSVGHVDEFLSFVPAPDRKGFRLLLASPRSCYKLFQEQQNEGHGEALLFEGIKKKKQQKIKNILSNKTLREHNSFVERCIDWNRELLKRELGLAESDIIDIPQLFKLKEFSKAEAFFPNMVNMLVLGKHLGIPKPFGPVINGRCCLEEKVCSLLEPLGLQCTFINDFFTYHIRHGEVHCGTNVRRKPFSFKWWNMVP
- PROCEDURE TEXT: RFMS1 assay (RapidFire mass spectrometry, BAEE substrate)
- Type: biochemical
- MEASUREMENT SETUP: 5 nM hPAD4, 250 μM BAEE, 30 min preincubation at 37° C., 90 min reaction; read-out: RFMS 1 IC50
pIC50: −log10 of the molar value.
Entries annotated with measured pIC50

C[C@H](CN1CCc2cc3c(cc2C1=O)nc(-c1cc2ccccc2n1CC1CC1)n3C)NCCF	< 6.00
COc1cccc2cc(-c3nc4cc5c(cc4n3C)CCN(C[C@@H](C)N)C5=O)n(CC3CC3)c12	7.00 to 7.96
C[C@H](Cn1ccnc1)Oc1cccc2cc(-c3nc4cc5c(cc4n3C)CCN(C[C@H](N)CF)C5=O)n(CC3CC3)c12	≥ 8.00
CC(=O)N1CCC(c2cccc3cc(-c4nc5cc6c(cc5n4C)CCN(C[C@H]4COCCN4)C6=O)n(CC4CC4)c23)CC1	7.00 to 7.96
Cn1c(-c2cc3cccc(OC[C@@H]4CNC(=O)C4)c3n2CC2CC2)nc2cc3c(cc21)CCN(C[C@H](N)CF)C3=O	≥ 8.00
Cn1c(-c2cc3cccc(OCc4ccn[nH]4)c3n2CC2CC2)nc2cc3c(cc21)CCN(C[C@H](N)CF)C3=O	7.00 to 7.96

Lookup: pIC50 / hPAD4 enzyme (Homo sapiens (Human), UniProt Q9UM07) / Cn1c(-c2cc3ccccc3n2CC2CC2)nc2cc3c(cc21)CCN(CC(C)(C)N)C3=O
< 6.00

----------
The entries below are paired with their reported pIC50.
- TARGET DESC: hPAD4 enzyme (Homo sapiens (Human), UniProt Q9UM07)
- PROCEDURE TEXT: RFMS2 assay (RapidFire mass spectrometry, TSTGGRQGSHH peptide substrate)
- Format: biochemical
- MEASUREMENT SETUP: 35 nM recombinant human PAD4, 500 μM TSTGGRQGSHH peptide, 30 minutes at room temperature; read-out: RFMS 2 IC50
- Procedure: Stock compounds were dissolved and stored in 100% DMSO. Compound solutions were prepared via serial dilution at 3-fold intervals in DMSO with top compound concentration at 20 μM in each assay. 0.25 μl of compound solution was transferred from the compound plate to the assay plate by using an acoustic dispenser. […] MRM transitions for substrate and product were monitored in positive ESI mode at m/z=562.3/969.7 and m/z=562.8/541.3 respectively. […]
pIC50: −log10 of the molar value.

For orientation, consider the following solved cases.
Cn1c(-c2cc3cccc(OCCC4CNC(=O)C4)c3n2CC2CC2)nc2cc3c(cc21)CCN(C[C@H](N)CF)C3=O (single isomer, unassigned) [Example 179]	6.30 to 7.00
C[C@@H](N)CN1CCc2cc3c(cc2C1=O)nc(-c1cc2ccc(Cl)cc2n1CC1CC1)n3C [Example 25]	6.30 to 7.00
Cc1cccc2cc(-c3nc4cc5c(cc4n3C)CCN(C[C@@H](C)N)C5=O)n(CC3CCC3)c12 [Example 89]	6.30 to 7.00
Cn1c(-c2cc3cccnc3n2Cc2ccno2)nc2cc3c(cc21)CCN(C[C@H](N)CF)C3=O [Example 121]	< 6.00
Cc1nccn1CCOc1cccc2cc(-c3nc4cc5c(cc4n3C)CCN(C[C@H](N)CF)C5=O)n(CC3CC3)c12 [Example 165]	6.30 to 7.00

# lookup: pIC50 of COc1cccc2cc(-c3nc4cc5c(cc4n3C)CCN(C[C@H](N)CF)C5=O)n(C(C)C)c12 [Example 109]
< 6.00

Proceed to COc1cccc2cc(-c3nc4cc5c(cc4n3C)CCN(C[C@H](N)CF)C5=O)n(Cc3cc[nH]n3)c12 [Example 115]
6.30 to 7.00

----------
- TARGET DESC: hPAD4 enzyme (Homo sapiens (Human))
- PROCEDURE TEXT: RFMS1 assay (RapidFire mass spectrometry, BAEE substrate)
- Format: biochemical
- MEASUREMENT SETUP: 5 nM hPAD4, 250 μM BAEE, 30 min preincubation at 37° C., 90 min reaction; read-out: RFMS 1 IC50
pIC50: −log10 of the molar value.
READOUT: pIC50

Examples from the recorded data:
C[C@H](COc1cccc2cc(-c3nc4cc5c(cc4n3C)CCN(C[C@H]3COCCN3)C5=O)n(CC3CC3)c12)n1cnc(F)c1	≥ 8.00
Cn1c(-c2cc3cccc(OCCn4ccnc4)c3n2CC2CC2)nc2cc3c(cc21)CCN(C[C@H](N)CF)C3=O	≥ 8.00
CN[C@H](C)CN1CCc2cc3c(cc2C1=O)nc(-c1cc2ccccc2n1CC1CC1)n3C	6.00 to 6.30
C[C@H](COc1cccc2cc(-c3nc4cc5c(cc4n3C)CCN(C[C@H](N)CF)C5=O)n(CC3CC3)c12)n1cnc(F)c1	≥ 8.00
Cc1cc(N2CCCS2(=O)=O)ccc1-c1ccc2cc(-c3nc4cc5c(cc4n3C)CCN(C[C@H]3COCCN3)C5=O)n(CC3CC3)c2n1	7.00 to 7.96
COc1cccc2cc(-c3nc4cc5c(cc4n3C)CCN(C[C@H](N)CF)C5=O)n(CC3CC3)c12	7.00 to 7.96

Let us examine a further case.
So what pIC50 did Cc1cccc2cc(-c3nc4cc5c(cc4n3C)CCN(C[C@H](N)CF)C5=O)n(CC3CC3)c12 get with hPAD4 enzyme (Homo sapiens (Human))?
6.30 to 7.00

----------
- TARGET DESC: UniProt Q9UM07
- PROCEDURE TEXT: RFMS2 assay (RapidFire mass spectrometry, TSTGGRQGSHH peptide substrate)
- Assay type: biochemical
- MEASUREMENT SETUP: 35 nM recombinant human PAD4, 500 μM TSTGGRQGSHH peptide, 30 minutes at room temperature; read-out: RFMS 2 IC50
pIC50: −log10 of the molar value.
Let's look at some compounds and their measured pIC50.

Cn1c(-c2cc3cccc(N4CCOCC4)c3n2CC2CC2)nc2cc3c(cc21)CCN(C[C@H](N)CF)C3=O	< 6.00
COCCn1c(-c2nc3cc4c(cc3n2C)CCN(C[C@H](N)CF)C4=O)cc2ccc(Cl)nc21	6.00 to 6.30
Cn1c(-c2cc3ccccc3n2CC2CC2)nc2cc3c(cc21)CCN(C[C@H](N)C1CC1)C3=O	6.30 to 7.00
COCCn1c(-c2nc3cc4c(cc3n2C)CCN(C[C@@H](C)N)C4=O)cc2ccccc21	< 6.00
C[C@H](Cn1ccnc1)Oc1cccc2cc(-c3nc4cc5c(cc4n3C)CCN(C[C@H](N)CF)C5=O)n(CC3CC3)c12	6.30 to 7.00
C[C@@H](N)CN1CCc2cc3c(cc2C1=O)nc(-c1cc2ccc(=O)[nH]c2n1CC1CC1)n3C	< 6.00
Cn1c(-c2cc3cccc(OC[C@@H]4CNCCO4)c3n2CC2CC2)nc2cc3c(cc21)CCN(C[C@H](N)CF)C3=O	6.00 to 6.30
Cc1ccc2c(c1)cc(-c1nc3cc4c(cc3n1C)CCN(C[C@@H](C)N)C4=O)n2CC1CC1	< 6.00

Please look up its pIC50: COCCn1c(-c2nc3cc4c(cc3n2C)CCN(C[C@H](N)CF)C4=O)cc2cccnc21
< 6.00

And for Cn1cc(Cn2c(-c3nc4cc5c(cc4n3C)CCN(C[C@H](N)CF)C5=O)cc3ccccc32)cn1 ?
6.00 to 6.30

Same question for COC1(Cn2c(-c3nc4cc5c(cc4n3C)CCN(C[C@H](N)CF)C5=O)cc3ccccc32)CC1 please.
< 6.00

Next entry: C[C@@H](N)CN1CCc2cc3c(cc2C1=O)nc(-c1cc2ccccc2n1Cc1cccnc1)n3C
6.30 to 7.00

Same for CC(C)Cn1c(-c2nc3cc4c(cc3n2C)CCN(C[C@@H](C)N)C4=O)cc2ccccc21
6.00 to 6.30

And the next one, Cn1c(-c2cc3cccc(OCCc4c[nH]nn4)c3n2CC2CC2)nc2cc3c(cc21)CCN(C[C@H](N)CF)C3=O ?
7.00 to 7.96

Then this compound: COc1cccc2cc(-c3nc4cc5c(cc4n3C)CCN(C[C@H](N)CF)C5=O)n(Cc3oncc3C)c12
6.30 to 7.00
